# Test system: SF-268 CNS
# Assay: NCI-60 one-dose screen, 48 h
# Measurement Context: 10 µM unless noted
This is part of a sample that, as a whole, favours compounds with a hit. Of some 83,000 tested, about 20% had one in any assay. Calls of active or inactive are those of the source. How the source made its calls: active means growth percent below 10; inactive means the rest.
Give your call using only these classes: Yes for active, No for inactive

{"columns": ["Compound", "Group Label"],
 "data": [
  ["O=C(Nc1cccnc1)c1ccc2ccc3ccc(C(=O)Nc4cccnc4)nc3c2n1", "No"],
  ["c1cc2ccc3cc2cc1CNCCN1CCNCc2ccc4ccc(cc4c2)CNCCN(CCNC3)CCNCc2ccc3ccc(cc3c2)CNCC1", "Yes"],
  ["C=CCCCCOc1ccccc1-c1cnc(OCCCCC=C)n1C", "No"]
]}

Please let me know the test result on file for `CC1(C)CC(=O)c2c(ccc(C(=O)C[C@@H](N)CO)c2N)O1` .
No

Please let me know the test result on file for CCOC(=O)C1=C(C(=O)c2ccc(Br)cc2)C(c2ccc(Br)cc2)NC(=S)N1 (stereo not given) .
No

Just for reference, PubChem BioAssay (NCI) is where these values come from.
